Recorded IC50 by entry
Molecular target: 5-lipoxygenase (Mus musculus)
Construct: The supernatant is used as a 5-lipogenase enzyme solution; endogenous in cells
Sequence (P48999 whole entry): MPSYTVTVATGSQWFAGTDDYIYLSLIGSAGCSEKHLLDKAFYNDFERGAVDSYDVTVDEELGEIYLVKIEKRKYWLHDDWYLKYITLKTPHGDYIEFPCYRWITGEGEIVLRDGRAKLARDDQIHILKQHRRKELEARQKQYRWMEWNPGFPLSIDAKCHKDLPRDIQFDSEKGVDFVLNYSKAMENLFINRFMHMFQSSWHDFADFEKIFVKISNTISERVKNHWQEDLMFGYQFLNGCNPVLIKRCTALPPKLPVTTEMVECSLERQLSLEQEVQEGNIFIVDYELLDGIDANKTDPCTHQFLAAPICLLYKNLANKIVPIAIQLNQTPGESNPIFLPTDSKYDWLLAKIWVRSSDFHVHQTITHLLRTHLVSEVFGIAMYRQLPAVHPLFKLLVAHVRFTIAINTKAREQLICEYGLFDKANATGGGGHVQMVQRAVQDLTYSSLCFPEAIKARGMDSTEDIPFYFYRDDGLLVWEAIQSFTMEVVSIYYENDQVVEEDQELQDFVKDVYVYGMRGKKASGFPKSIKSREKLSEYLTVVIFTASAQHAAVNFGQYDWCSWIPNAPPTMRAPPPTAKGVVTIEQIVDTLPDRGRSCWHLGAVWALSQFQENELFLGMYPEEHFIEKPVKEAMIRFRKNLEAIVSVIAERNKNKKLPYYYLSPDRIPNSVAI
Experiment: 5-Lipoxygenase-inhibiting Activity (decrease in 5-HETE and LTB4 formed from radiolabelled arachidonic acid, enzyme solution from mouse mastcytoma cells P-815)
Format: biochemical
Conditions: 5-HETE and LTB4 formation; mouse mastcytoma P-815 enzyme solution; 37° C., 5 min; pH 7.4; with indomethacin; read-out: 50% Inhibitory concentration IC50
outcome measure: IC50 (nM)

O=C(/C=C/c1ccc(O)c(O)c1)NCCCN1CCN(C(c2ccccc2)c2ccccc2)CC1 [Example 37]; 30
COc1cc(/C=C/C(=O)NCCN2CCC(OC(c3ccccc3)c3ccccc3)CC2)cc(OC)c1O [Example 117]; 20
COc1cc(/C=C/C(=O)NCCCCNC(=O)/C=C/c2ccc(O)c(OC)c2)ccc1O [Example 4]; 2000
COc1cc(/C=C/C=C/C(=O)NCCCN2CCN(C(c3ccccc3)c3ccc(Cl)cc3)CC2)ccc1O (stereo not shown) [Example 39]; 100
COc1ccc(/C=C/C(=O)N2CCN(CCCOC(C)(c3ccccc3)c3ccc(Cl)cc3)CC2)cc1OC (stereo not shown) [Example 104]; 10000
COc1cc(/C=C/C(=O)N2CCN(CCCn3cnc4c3c(=O)n(C)c(=O)n4C)CC2)ccc1O [Example 123]; 10000
COc1cc(/C=C/C(=O)N2CCN(CCOC(C)(c3ccccc3)c3ccc(Cl)cc3)CC2)cc(OC)c1O (stereo not shown) [Example 105]; 10
O=C(/C=C/c1ccc(O)c(O)c1)N1CCN(C(c2ccccc2)c2ccccc2)CC1 [Example 8]; 100
COc1cc(/C=C/C(=O)N2CCN(CCOC(c3ccccc3)c3ccccc3)CC2)ccc1O [Example 70]; 600
O=C(/C=C/C=C/c1ccc(O)c(O)c1)NCCCN1CCN(C(c2ccccc2)c2ccccc2)CC1 [Example 44]; 80
COc1cc(/C=C/C=C/C(=O)NCCCN2CCN(C(c3ccccc3)c3ccccc3)CC2)ccc1O [Example 38]; 200
O=C(/C=C/C=C/c1ccc(O)c(O)c1)NCCN1CCC(OC(c2ccccc2)c2ccccc2)CC1 [Example 118]; 30
O=C(/C=C/c1ccc(O)c(O)c1)NCCOC(c1ccccc1)c1ccccc1 [Example 67]; 30
O=C(/C=C/c1ccc(O)c(O)c1)NCCCCNC(=O)/C=C/c1ccc(O)c(O)c1 [Example 7]; 500
CC(OCCN1CCN(C(=O)/C=C/C=C/c2ccc(O)c(O)c2)CC1)(c1ccccc1)c1ccc(Cl)cc1 (stereo not shown) [Example 107]; 10
COc1cc(/C=C/C=C/C(=O)NCCCN2CCN(C(c3ccccc3)c3ccccc3)CC2)cc(OC)c1O [Example 55]; 30

###

Recorded IC50 by entry
Target: 5-lipoxygenase (Mus musculus)
Construct: The supernatant is used as a 5-lipogenase enzyme solution; endogenous in cells
Assay: 5-Lipoxygenase-inhibiting Activity (decrease in 5-HETE and LTB4 formed from radiolabelled arachidonic acid, enzyme solution from mouse mastcytoma cells P-815)
Format: biochemical
Details: 5-HETE and LTB4 formation; mouse mastcytoma P-815 enzyme solution; 37° C., 5 min; pH 7.4; with indomethacin; read-out: 50% Inhibitory concentration IC50
outcome measure: IC50 (nM)

O=C(/C=C/C=C/c1ccc(O)c(O)c1)NCCCCN1CCN(C(c2ccccc2)c2ccc(Cl)cc2)CC1 (stereo not shown) [Example 82]; 20
CC/C=C\C/C=C\C/C=C\C/C=C\C/C=C\C/C=C\CCC(=O)NCCCCNC(=O)/C=C/c1ccc(O)c(O)c1 [Example 6]; 60
COc1cc(/C=C/C=C/C(=O)NCCCCN2CCN(C(c3ccccc3)c3ccccc3)CC2)cc(OC)c1O [Example 97]; 40
COc1cc(/C=C/C(=O)NCCCN2CCC(OC(c3ccccc3)c3ccccc3)CC2)cc(OC)c1O [Example 126]; 10
COc1cc(/C=C/C=C/C(=O)N2CCN(CCCCn3cnc4c3c(=O)n(C)c(=O)n4C)CC2)ccc1O [Example 130]; 1000
O=C(/C=C/C=C/c1ccc(O)c(O)c1)NCCCCNC(=O)/C=C/C=C/c1ccc(O)c(O)c1 [Example 21]; 30
COc1cc(/C=C/C=C/C(=O)NCCCCN2CCN(C(c3ccccc3)c3ccc(Cl)cc3)CC2)ccc1O (stereo not shown) [Example 86]; 40

###

Target: 5-lipoxygenase (Mus musculus)
Construct: The supernatant is used as a 5-lipogenase enzyme solution; endogenous in cells
Assay: 5-Lipoxygenase-inhibiting Activity (decrease in 5-HETE and LTB4 formed from radiolabelled arachidonic acid, enzyme solution from mouse mastcytoma cells P-815)
Type: biochemical
Conditions: 5-HETE and LTB4 formation; mouse mastcytoma P-815 enzyme solution; 37° C., 5 min; pH 7.4; with indomethacin; read-out: 50% Inhibitory concentration IC50
outcome measure: log10 IC50 (log10 of the value in nM)

COc1cc(/C=C/C=C/C(=O)NCCCCNC(=O)c2ccccc2N)ccc1O; 2.48
O=C(/C=C/C=C/c1ccc(O)c(O)c1)NCCN1CCN(C(c2ccccc2)c2ccc(Cl)cc2)CC1 (centres unmarked); 1.00
COc1cc(/C=C/C(=O)NCc2c(CO)cnc(C)c2O)cc(OC)c1O; 3.78
COc1cc(/C=C/C=C/C(=O)Nc2ccccc2C(=O)O)ccc1O; 2.78
O=C(/C=C/C=C/c1ccc(O)c(O)c1)Nc1ccc(O)cc1; 1.90
COc1cc(/C=C/C(=O)NCCCCNC(=O)c2ccccc2N)ccc1O; 4.30
COc1cc(/C=C/C=C/C(=O)NCCCOC(c2ccccc2)c2ccccc2)ccc1O; 1.95
COc1cc(/C=C/C(=O)N2CCN(CCCCn3cnc4c3c(=O)n(C)c(=O)n4C)CC2)cc(OC)c1O; 3.85
COc1cc(/C=C/C(=O)NCCN2CCN(C(c3ccccc3)c3ccccc3)CC2)ccc1O; 2.78
COc1cc(/C=C/C=C/C(=O)N2CCN(CCn3cnc4c3c(=O)n(C)c(=O)n4C)CC2)cc(OC)c1OC; 4.30
COc1cc(/C=C/C=C/C(=O)NCCn2cnc3c2c(=O)n(C)c(=O)n3C)cc(OC)c1OC; 3.95
O=C(/C=C/c1ccc(O)c(O)c1)NCCCCN1CCN(C(c2ccccc2)c2ccc(Cl)cc2)CC1 (centres unmarked); 1.70
COc1cc(/C=C/C=C/C(=O)NCCn2cnc3c2c(=O)n(C)c(=O)n3C)ccc1O; 3.60
COc1cc(/C=C/C(=O)N2CCN(CCOC(C)(c3ccccc3)c3ccc(Cl)cc3)CC2)ccc1O (centres unmarked); 2.30
COc1cc(/C=C/C=C/C(=O)N2CCN(CCOC(C)(c3ccccc3)c3ccc(Cl)cc3)CC2)ccc1O (centres unmarked); 1.00
O=C(/C=C/C=C/c1ccc(O)c(O)c1)NCCN1CCN(C(c2ccccc2)c2ccccc2)CC1; 0.85
CC(=O)OCc1cnc(C)c(O)c1CNC(=O)/C=C/c1ccc(O)c(O)c1; 3.00
COc1cc(/C=C/C(=O)NCCOC(c2ccccc2)c2ccccc2)cc(OC)c1O; 1.70
COc1cc(/C=C/C(=O)NCCCOC(c2ccccc2)c2ccccc2)ccc1O; 2.85
O=C(/C=C/c1ccc(O)c(O)c1)NCCN1CCN(C(c2ccccc2)c2ccc(Cl)cc2)CC1 (centres unmarked); 1.90
